Test: Stability of cannabinoid compounds and Vitamin E components in Beverage 1 (AB White) by LCMSMS
Format: physicochemical
Conditions: AB White stored at 21-25° C.; 9 days
Task for the reader: assign each of the following compounds its reported Stability of Plant-Derived Cannabinoid Compounds in AB White, 21-25° C..

Input: Determine its reported Stability of Plant-Derived Cannabinoid Compounds in AB White, 21-25° C.: `CCCCCc1cc(O)c2c(c1)OC(C)(C)c1ccc(C)cc1-2`
Output: 2.78 µg/mL

Input: Determine its reported Stability of Plant-Derived Cannabinoid Compounds in AB White, 21-25° C.: CCCc1cc(O)c2c(c1)OC(C)(C)[C@@H]1CCC(C)=C[C@@H]21 [THCV, delta-9-tetrahydrocannabivarin]
Output: 3.55 µg/mL

Input: Determine its reported Stability of Plant-Derived Cannabinoid Compounds in AB White, 21-25° C.: CCCCCc1cc(O)c2c(c1)OC(C)(C)[C@@H]1CCC(C)=C[C@@H]21 [D9 THC, delta-9-tetrahydrocannabinol, reference compound]
Output: 11.8 µg/mL

Input: Determine its reported Stability of Plant-Derived Cannabinoid Compounds in AB White, 21-25° C.: CCCCCc1cc(O)c2c(c1)OC(C)(CCC=C(C)C)C=C2 (stereo not drawn)
Output: 0.307 µg/mL

Input: Determine its reported Stability of Plant-Derived Cannabinoid Compounds in AB White, 21-25° C.: `C=C(C)[C@@H]1CCC(C)=C[C@H]1c1c(O)cc(CCCCC)c(C(=O)O)c1O`
Output: 1.74 µg/mL

Input: Determine its reported Stability of Plant-Derived Cannabinoid Compounds in AB White, 21-25° C.: `CCCCCc1cc(O)c(C/C=C(\C)CCC=C(C)C)c(O)c1`
Output: 4.79 µg/mL

Input: Determine its reported Stability of Plant-Derived Cannabinoid Compounds in AB White, 21-25° C.: CCCCCc1cc2c(c(O)c1C(=O)O)[C@@H]1C=C(C)CC[C@H]1C(C)(C)O2 [D9 THCA, delta-9-tetrahydrocannabinolic acid]
Output: 0.926 µg/mL

Input: Determine its reported Stability of Plant-Derived Cannabinoid Compounds in AB White, 21-25° C.: `C=C(C)[C@@H]1CCC(C)=C[C@H]1c1c(O)cc(CCC)cc1O`
Output: 0.148 µg/mL

Input: Determine its reported Stability of Plant-Derived Cannabinoid Compounds in AB White, 21-25° C.: CCCCCc1cc(O)c2c(c1)OC1(C)CCC3C1C2C3(C)C (stereo not drawn)
Output: 0.535 µg/mL

* * *

Task for the reader: assign each of the following molecules its reported Stability of Plant-Derived Cannabinoid Compounds in AB White, 21-25° C..
Assay: Stability of cannabinoid compounds and Vitamin E components in Beverage 1 (AB White) by LCMSMS
Format: physicochemical
Conditions: AB White stored at 21-25° C.; 0 days

Input: Determine its reported Stability of Plant-Derived Cannabinoid Compounds in AB White, 21-25° C.: CCCCCc1cc2c(c(O)c1C(=O)O)[C@@H]1C=C(C)CC[C@H]1C(C)(C)O2 [D9 THCA, delta-9-tetrahydrocannabinolic acid]
Output: 0.950 µg/mL

Input: Determine its reported Stability of Plant-Derived Cannabinoid Compounds in AB White, 21-25° C.: CCCCCc1cc(O)c2c(c1)OC(C)(C)[C@@H]1CCC(C)=C[C@@H]21 [D9 THC, delta-9-tetrahydrocannabinol, reference compound]
Output: 12.2 µg/mL

Input: Determine its reported Stability of Plant-Derived Cannabinoid Compounds in AB White, 21-25° C.: CCCCCc1cc(O)c(C/C=C(\C)CCC=C(C)C)c(O)c1 [CBG, cannabigerol]
Output: 4.87 µg/mL

Input: Determine its reported Stability of Plant-Derived Cannabinoid Compounds in AB White, 21-25° C.: C=C(C)[C@@H]1CCC(C)=C[C@H]1c1c(O)cc(CCCCC)c(C(=O)O)c1O [CBDA, cannabidiolic acid]
Output: 1.75 µg/mL

Input: Determine its reported Stability of Plant-Derived Cannabinoid Compounds in AB White, 21-25° C.: CCCCCc1cc(O)c2c(c1)OC1(C)CCC3C1C2C3(C)C (centres unmarked) [CBL, cannabicyclol]
Output: 0.550 µg/mL

* * *

Task for the reader: assign each of the following molecules its reported Stability of Plant-Derived Cannabinoid Compounds in Powder Concentrate.
Assay: Stability of cannabinoid entourage and Vitamin E components of the powder concentrate by LCMSMS
Type: physicochemical
Details: powder stored at 21-25° C.; 300 days
Output spec: scalar in mg/g powder, unitless text.

Input: Determine its reported Stability of Plant-Derived Cannabinoid Compounds in Powder Concentrate: CCCCCc1cc(O)c2c(c1)OC1(C)CCC3C1C2C3(C)C (stereo not shown) [CBL, cannabicyclol]
Output: 0.050

Input: Determine its reported Stability of Plant-Derived Cannabinoid Compounds in Powder Concentrate: C=C(C)[C@@H]1CCC(C)=C[C@H]1c1c(O)cc(CCCCC)cc1O [CBD, cannabidiol, reference compound]
Output: 5.84

Input: Determine its reported Stability of Plant-Derived Cannabinoid Compounds in Powder Concentrate: C=C(C)[C@@H]1CCC(C)=C[C@H]1c1c(O)cc(CCCCC)c(C(=O)O)c1O [CBDA, cannabidiolic acid]
Output: 0.409

Input: Determine its reported Stability of Plant-Derived Cannabinoid Compounds in Powder Concentrate: C=C(C)[C@@H]1CCC(C)=C[C@H]1c1c(O)cc(CCC)cc1O [CBDV, cannabidivarin]
Output: 0.049

Input: Determine its reported Stability of Plant-Derived Cannabinoid Compounds in Powder Concentrate: CCCCCc1cc(O)c(C/C=C(\C)CCC=C(C)C)c(O)c1 [CBG, cannabigerol]
Output: 1.09

Input: Determine its reported Stability of Plant-Derived Cannabinoid Compounds in Powder Concentrate: CCCc1cc(O)c2c(c1)OC(C)(C)[C@@H]1CCC(C)=C[C@@H]21 [THCV, delta-9-tetrahydrocannabivarin]
Output: 0.685

Input: Determine its reported Stability of Plant-Derived Cannabinoid Compounds in Powder Concentrate: CCCCCc1cc(O)c2c(c1)OC(C)(C)c1ccc(C)cc1-2 [CBN, cannabinol]
Output: 0.469

Input: Determine its reported Stability of Plant-Derived Cannabinoid Compounds in Powder Concentrate: CCCCCc1cc(O)c2c(c1)OC(C)(CCC=C(C)C)C=C2 (stereo not shown) [CBC, cannabichromene]
Output: 0.071

Input: Determine its reported Stability of Plant-Derived Cannabinoid Compounds in Powder Concentrate: CCCCCc1cc2c(c(O)c1C(=O)O)[C@@H]1C=C(C)CC[C@H]1C(C)(C)O2 [D9 THCA, delta-9-tetrahydrocannabinolic acid]
Output: 0.156

Input: Determine its reported Stability of Plant-Derived Cannabinoid Compounds in Powder Concentrate: CCCCCc1cc(O)c2c(c1)OC(C)(C)[C@@H]1CCC(C)=C[C@@H]21 [D9 THC, delta-9-tetrahydrocannabinol, reference compound]
Output: 2.57

* * *

Assay: Stability of cannabinoid compounds and Vitamin E components in Beverage 2 (AB Red) by LCMSMS
Assay type: physicochemical
Conditions: stored at 21-25° C., 18 days
MEASURED_ATTRIBUTE: Stability of Plant-Derived Cannabinoid Compounds in AB Red (µg/mL)
Output spec: scalar in µg/mL, unitless text.

Input: Determine its reported Stability of Plant-Derived Cannabinoid Compounds in AB Red: `CCCCCc1cc(O)c2c(c1)OC(C)(C)c1ccc(C)cc1-2`
Output: 2.80

Input: Determine its reported Stability of Plant-Derived Cannabinoid Compounds in AB Red: CCCCCc1cc(O)c2c(c1)OC(C)(C)[C@@H]1CCC(C)=C[C@@H]21 [D9 THC, delta-9-tetrahydrocannabinol, reference compound]
Output: 12.8

Input: Determine its reported Stability of Plant-Derived Cannabinoid Compounds in AB Red: CCCc1cc(O)c2c(c1)OC(C)(C)[C@@H]1CCC(C)=C[C@@H]21 [THCV, delta-9-tetrahydrocannabivarin]
Output: 3.19

Input: Determine its reported Stability of Plant-Derived Cannabinoid Compounds in AB Red: CCCCCc1cc2c(c(O)c1C(=O)O)[C@@H]1C=C(C)CC[C@H]1C(C)(C)O2 [D9 THCA, delta-9-tetrahydrocannabinolic acid]
Output: 1.36

Input: Determine its reported Stability of Plant-Derived Cannabinoid Compounds in AB Red: `C=C(C)[C@@H]1CCC(C)=C[C@H]1c1c(O)cc(CCC)cc1O`
Output: 0.20

Input: Determine its reported Stability of Plant-Derived Cannabinoid Compounds in AB Red: CCCCCc1cc(O)c2c(c1)OC(C)(CCC=C(C)C)C=C2 (stereo not drawn)
Output: 0.29

Input: Determine its reported Stability of Plant-Derived Cannabinoid Compounds in AB Red: `CCCCCc1cc(O)c(C/C=C(\C)CCC=C(C)C)c(O)c1`
Output: 4.70

Input: Determine its reported Stability of Plant-Derived Cannabinoid Compounds in AB Red: CCCCCc1cc(O)c2c(c1)OC1(C)CCC3C1C2C3(C)C (stereo not drawn)
Output: 0.50

Input: Determine its reported Stability of Plant-Derived Cannabinoid Compounds in AB Red: `C=C(C)[C@@H]1CCC(C)=C[C@H]1c1c(O)cc(CCCCC)c(C(=O)O)c1O`
Output: 1.65
